- TARGET_SYSTEM: T1, human B7-H4 (purified monomeric recombinant human protein, ACRO biosystems) (human, UniProt Q7Z7D3 29-258, limits assumed, chemically biotinylated (EZ-Link NHS-LC-Biotin) in the yeast display and competition experiments; non-biotinylated in SPR)
- T1 construct: Bought recombinant monomeric protein; also called B7x; B7S1
- T1 sequence: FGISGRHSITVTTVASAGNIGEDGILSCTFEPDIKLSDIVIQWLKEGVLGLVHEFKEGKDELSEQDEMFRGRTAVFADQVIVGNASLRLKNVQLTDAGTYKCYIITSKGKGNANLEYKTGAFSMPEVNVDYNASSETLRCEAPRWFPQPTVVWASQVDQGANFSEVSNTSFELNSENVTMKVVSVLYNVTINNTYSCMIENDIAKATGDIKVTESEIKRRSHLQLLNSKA
- METHOD: SPR (Carterra LSA); scFv-Fc captured on anti-human IgG Fc, antigen injected
READOUT: Kd (nM)

1. B02 scFv-Fc (scFv, V domains shown, Tested as scFv-Fc fusion (human IgG1 Fc, vector pDNL9) in crude yeast supernatant; Combo 1 library) VH: EVQLVESGGGVVQPGRSLRLSCAASGFTFSSRSMNWVRQAPGKGLEWVSAISGSGSTVYYADSVKGRFTISRDNSKNTLYLQMNSLRAEDTAVYYCARKRWYGMDVWGQGTTVTVSS VL: SYELTQPPSVSVAPGKTARITCGGNNIGVKSVHWYQQKPGQAPVLVVYDDSDRSPGIPERFSGSNSGNTATLTISRVEAGDEADYYCQVWDSRTYVFGTGTKLTVL ... 0.059
2. B08 scFv-Fc (scFv, V domains shown, Tested as scFv-Fc fusion (human IgG1 Fc, vector pDNL9) in crude yeast supernatant; Combo 2 library) VH: EVQLVESGGGVVQPGRSLRLSCAASGFTFSDRAMNWVRQAPGKGLEWVSAISASGASRYYADSVKGRFTISRDNSKNTLYLQMNSLRAEDTAVYYCARKRWYGMDVWGQGTTVTVSS VL: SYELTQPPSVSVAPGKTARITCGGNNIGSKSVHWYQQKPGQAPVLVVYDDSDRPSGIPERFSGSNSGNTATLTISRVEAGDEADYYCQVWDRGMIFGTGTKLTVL ... 0.117
